# Test system: CEM cells HIV-1 protection, formazan growth assay
# test: NCI AIDS Antiviral Assay
pEC50: −log10 of the molar value.
observed_property: pEC50

>>> print(df.to_string())
                                    compound  result
 0  CCC1CCc2c(c(=O)oc3c2cc(OC)c2cccc(OC)c23)C1 (configuration not stated)  < 3.96
 1  COc1ccc(/C(C)=N\NS(=O)(=O)c2ccc(NC(C)=O)cc2)cc1  < 3.74
 2  NC1CC(=O)c2cc(Cl)sc21 (configuration not stated)  < 3.70
 3  O=C(O)CN(CC(=O)O)C1CCCCC1N1CC(=O)OC(=O)C1 (configuration not stated)  < 3.70
 4        CN(C)c1ccc2nc(C(=O)O)c(=O)n(C)c2c1  < 3.70
 5  COC1C(=O)CCC2(CO2)C1(O)C1(C)OC1CC=C(C)C (configuration not stated)  < 3.70
 6  CCCCCCCCCCCCCCCCOC1N(C2CC(N=[N+]=[N-])C(CO)O2)C(=O)NC(=O)[C@]1(C)Br (some centres not stated)  < 3.70
 7        CSc1nc(=S)[nH]c2c1c(C)nn2-c1ccccc1  < 3.70
 8  COc1cc(/C=C2\C(=O)N(c3ccccc3)C(c3ccccc3)S2(=O)=O)cc(OC)c1OC (configuration not stated)  < 4.70
 9   Cc1cc(O)c(/C=N/C(=S)NCCc2ccccc2)c(=O)o1  < 3.70
10  O=c1oc2ccccc2c(O)c1C(c1ccc(Cl)cc1)c1c(O)c2ccccc2oc1=O  < 3.70
11                COc1ccc(CCc2ncc[nH]2)cc1OC  < 3.21
12    CC1=N/C(=C\c2ccc(-c3ccccc3)cc2)C(=O)O1  < 4.70
13    COc1ccc(/C=C(/C(C)=O)C(=O)c2ccccc2)cc1  < 3.89
14  CN(C)CC1CN(C(=O)Nc2ccccc2)C(=N)O1 (configuration not stated)  < 3.70
15  CNc1c2cccc(C)c2nc2c(C(=O)NCCN(C)C)cccc12  < 6.70
16  Cc1cn(C2C=CC(COP(=O)(OCC(=O)c3ccccc3)OCC(=O)c3ccccc3)O2)c(=O)[nH]c1=O (configuration not stated)    6.07

###

Listed here: items and their measured IC50.
# System: CEM cells HIV-1 protection, formazan growth assay
# test: NCI AIDS Antiviral Assay
# settings: measured here: growth of uninfected CEM cells
# Method: The ability of compounds to protect human CEM cells from HIV-1 infection is measured as a screen for new compounds capable of inhibiting the HIV virus. Five concentrations of drug were tested on uninfected and infected cells and cell growth was measured using a soluble formazan assay. […] Compounds that provided at least 50% protection were retested. Compounds that provided at least 50% protection on retest were listed as moderately active. […]

molecule	experimental_target	IC50
c1ccc(CN2C3C4N(Cc5ccccc5)C2C2N(Cc5ccccc5)C(C(N2Cc2ccccc2)N4Cc2ccccc2)N3Cc2ccccc2)cc1	CEM cells HIV-1 protection, formazan growth assay	> 100 µM
CC(=O)c1cccc(NC(=O)C(=O)C(c2cnc3ccc([N+](=O)[O-])cc3n2)[N+](=O)[O-])c1 (stereo not given)	CEM cells HIV-1 protection, formazan growth assay	> 117 µM
Cc1cc(O)c(/C=N/C(=S)NCCc2ccccc2)c(=O)o1	CEM cells HIV-1 protection, formazan growth assay	> 200 µM
O=C1C[C@@H]2C(COC(=O)c3ccccc3)N(OCc3ccccc3)C[C@@H]2O1 (stereo not given in full)	CEM cells HIV-1 protection, formazan growth assay	> 97.7 µM
CCOC(=O)c1ccc(CS(=O)(=O)c2ccc(C)cc2)c([N+](=O)[O-])c1	CEM cells HIV-1 protection, formazan growth assay	> 100 µM
CC(=O)NC1C(OCc2ccccc2)OC(COC(=O)CCCCCCCCCCNc2ccc([N+](=O)[O-])c3[nH]c4ccccc4c(=O)c23)C(O)C1OC(C)C(=O)NC(C)C(=O)NC(CCC(N)=O)C(=O)OCc1ccccc1 (stereo not given)	CEM cells HIV-1 protection, formazan growth assay	> 166 µM
COC(=O)c1ccccc1NC(=O)C(=O)NNC(=O)c1ccncc1	CEM cells HIV-1 protection, formazan growth assay	> 275 µM
O=c1[nH]c2ccc([As](=O)(O)O)cc2[nH]1	CEM cells HIV-1 protection, formazan growth assay	> 200 µM
Cc1ccc(C(=O)OC(C)C)cc1N=NN(C)C	CEM cells HIV-1 protection, formazan growth assay	> 55 µM
NC(=O)NC1C(C(N)=O)N(Cc2ccccc2)C(=O)N1Cc1ccccc1 (stereo not given)	CEM cells HIV-1 protection, formazan growth assay	> 97.7 µM

###

# Tested on: CEM cells HIV-1 protection, formazan growth assay
# test: NCI AIDS Antiviral Assay
# settings: measured here: growth of uninfected CEM cells
Listed here: items and their measured IC50.
observed_property: IC50

compound	result
Nc1ccc(N=Nc2ccc(-c3ccc(N=Nc4c(S(=O)(=O)O)cc5cc(S(=O)(=O)O)c(N=Nc6ccc([N+](=O)[O-])cc6)c(N)c5c4O)cc3)cc2)c2cc(S(=O)(=O)O)ccc12	> 19.5 µM
Nc1nc(=O)[nH]c(N)c1N=O	> 200 µM
Nc1ccc(Nc2cc(=O)[nH]c(=O)[nH]2)cc1	> 200 µM
CCOC(=O)/C(C#N)=C/c1ccccc1F	> 309 µM
O=C1C2=C(Nc3cc([N+](=O)[O-])ccc3N2)OC1c1ccccc1 (centres undefined)	> 17 µM
COc1cccc(C(=O)C2C(=O)N(C)CCc3ccccc32)c1OC (centres undefined)	> 148 µM
O=S(=O)(OC(=C(c1ccccc1)c1ccccc1)c1ccccc1)C(F)(F)F	> 17.8 µM
O=C(O)c1ccc(C(=O)c2ccccc2C(=O)O)cc1	> 200 µM
O=C(O)/C=C\C(=O)Nc1ccccc1O	> 200 µM

###

Listed here: items and their measured IC50.
# System: CEM cells HIV-1 protection, formazan growth assay
# test: NCI AIDS Antiviral Assay
# settings: measured here: growth of uninfected CEM cells
observed_property: IC50

In [3]: df
Out[3]:
                                structure                       experimental_target    result
0          NC(CSS(=O)(=O)O)=NCCCCC1CCCCC1  CEM cells HIV-1 protection, formazan growth assay   30.9 µM
1   O=C(N/N=C(/c1ccccc1)C(F)(F)F)c1ccncc1  CEM cells HIV-1 protection, formazan growth assay  > 200 µM
2  CCOC(=O)C(=Cn1ccc(=O)[nH]c1=S)C(=O)OCC  CEM cells HIV-1 protection, formazan growth assay  > 200 µM
3         CCc1n[nH]c(=O)n1-c1ccc2ccccc2c1  CEM cells HIV-1 protection, formazan growth assay  > 100 µM

###

# Tested on: CEM cells HIV-1 protection, formazan growth assay
# test: NCI AIDS Antiviral Assay
# settings: measured here: growth of uninfected CEM cells
pIC50: −log10 of the molar value.
observed_property: pIC50

>>> print(df.to_string())
                                    compound  value_comparator  number
 0       O=C1C(=O)N(C2CCCCC2)C(=S)N1C1CCCCC1                 <    3.70
 1     CCOP(=O)(OCC)/C(C#N)=C/c1cc(OC)ccc1OC                 =    4.62
 2           c1ccc2c(c1)OCCOCCOc1ccccc1OCCO2                 =    4.13
 3      CC12CC(c3ccccc3N1)C1CC2(C)Nc2ccccc21                 <    4.19
 4  Cc1cn(C2CC(OC=O)C(CO)O2)c(=O)[nH]c1=O (stereo not drawn)                 =    4.21
 5  O=C1CNC(=O)c2c(ncn2C2OC(CO)CC2O)N1 (stereo not drawn)                 <    3.52
 6  N#Cc1c(-c2ccc([N+](=O)[O-])cc2)c(C#N)c(=O)n(NS(=O)(=O)c2ccccc2)c1O                 <    3.70
 7  COc1c(-c2ccccc2)oc2c(CP(=O)(OC)OC)cccc2c1=O                 =    4.25
 8  CSCCCNC(=O)c1csc(-c2csc(CCNC(=O)CNC(=O)CNC(=O)CNC(=O)OC(C)(C)C)n2)n1                 <    3.39
 9  COc1ccc(C[C@H]2COC(=O)[C@@H]2Cc2cc(OC)c(OC)c(OC)c2)cc1OC                 =    3.94
10  COc1cc(OCc2ccc3nc(OC)c(OC)nc3c2)cc(OC)c1OC                 <    3.70
11  c1ccc(P2CCc3[nH]c4ccccc4c3C2)cc1 (stereo not drawn)                 <    4.42
12  CCCC(=O)Nc1ccc(O)c2c1C1CCCCCC21 (stereo not drawn)                 =    3.99
13  O=C(O)c1c2c(nc3ccccc13)-c1ccccc1C1(CCCC1)C2                 =    3.77
14  Cc1cn(C2CC(ON)C(CO)O2)c(=O)[nH]c1=O (stereo not drawn)                 <    3.70
15  Cc1ccc(C)c(COCCOCn2c(=O)[nH]c(=O)c3cc(Br)ccc32)c1                 <    3.70
16  CC(=O)OCC1OC(n2cc(C(F)(F)F)c(=O)[nH]c2=O)CC1OC(C)=O (stereo not drawn)                 =    5.61
17  C[N+](C)(C)CC1CCC(C[N+](C)(C)C)C1=NO (stereo not drawn)                 <    3.30
